# system: SPL (Mus musculus, UniProt Q8R0X7)
# Construct: IT-79MTNC3 cells which are a mouse thymic epithelial cell line can be appropriately selected using the expression of an SPL protein as an index; host or cells: IT-79MTNC3 (mouse thymic epithelial cell line)
# Sequence (Q8R0X7 whole entry): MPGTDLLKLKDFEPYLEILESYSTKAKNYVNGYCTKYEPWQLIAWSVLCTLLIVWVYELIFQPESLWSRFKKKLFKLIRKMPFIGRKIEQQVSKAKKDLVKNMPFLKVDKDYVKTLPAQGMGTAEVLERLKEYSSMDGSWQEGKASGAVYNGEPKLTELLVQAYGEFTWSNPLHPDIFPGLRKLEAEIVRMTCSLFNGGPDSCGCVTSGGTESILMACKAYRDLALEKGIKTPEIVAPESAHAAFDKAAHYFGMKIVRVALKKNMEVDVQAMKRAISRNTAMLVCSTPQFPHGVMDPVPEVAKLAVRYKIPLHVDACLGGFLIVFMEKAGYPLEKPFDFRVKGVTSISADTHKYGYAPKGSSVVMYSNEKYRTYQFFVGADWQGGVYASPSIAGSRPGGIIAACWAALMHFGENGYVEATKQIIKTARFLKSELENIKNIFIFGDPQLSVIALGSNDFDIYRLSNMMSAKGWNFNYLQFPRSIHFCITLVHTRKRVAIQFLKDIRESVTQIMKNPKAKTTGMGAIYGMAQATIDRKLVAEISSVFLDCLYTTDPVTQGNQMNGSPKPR
# assay_info: SPA using known SPL inhibitor: accumulation of 3H-dhS1P in IT-79MTNC3 cells
# Format: cell-based
# protocol_conditions: normal DMEM (containing about 20 μM pyridoxine); read-out: EC50, activity of inhibiting the SPL activity
outcome_measure: pEC50
pEC50 (log units): -log10 of the concentration in mol/L.

# pEC50 lookup, item Cc1ncc(CO)c(C)c1O [DOP, 4-deoxypyridoxine]
4.34

* * *

# system: SPL (Mus musculus)
# Construct: IT-79MTNC3 cells which are a mouse thymic epithelial cell line can be appropriately selected using the expression of an SPL protein as an index; host or cells: IT-79MTNC3 (mouse thymic epithelial cell line)
# assay_info: SPA using known SPL inhibitor: accumulation of 3H-dhS1P in IT-79MTNC3 cells
# Assay type: cell-based
# protocol_conditions: in the presence of 100 nM pyridoxine; read-out: EC50, activity of inhibiting the SPL activity
outcome_measure: pEC50
Scale note: pEC50 = -log10(concentration in M).

Need pEC50 of Cc1ncc(CO)c(C)c1O [DOP, 4-deoxypyridoxine] , thanks.
7.57
